Recorded values, source patent US20150023943.

system.under.test: T1, P1 Ref (wild type) (Bacteriophage P1, UniProt P35926 SEQ:1-186)
T1 sequence: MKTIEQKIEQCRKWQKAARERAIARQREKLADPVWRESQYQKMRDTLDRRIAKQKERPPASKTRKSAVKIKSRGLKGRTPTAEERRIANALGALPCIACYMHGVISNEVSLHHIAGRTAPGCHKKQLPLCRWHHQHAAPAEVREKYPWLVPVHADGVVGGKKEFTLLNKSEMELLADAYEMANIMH
test.protocol: FP; apparent Kd; 14±1; 25 mM Tris-acetate pH 8.5, 15 mM Mg acetate, 3 mM K glutamate, 25 C
protocol.conditions: label: 5'-6FAM
measure: Kd
Answer with the value and then the unit.

Input line: For the binder AJM25 71mer ssDNA (ssDNA) DNA: CAGAAGTAAGTTGGCCGCAGTGTTATCACTCATGGTTATGGCAGCACTGCATAATTCTCTTACTGTCATGC , give its reported Kd.
Output line: 14.4 nM
